The values you see were collected from PubChem BioAssay (EPA / NIEHS).

The compounds listed here are annotated with their AC50.
# Read-out: Transforming growth factor beta 1 (TGFb1), TGFB1 (gene 7040)
# method.notes: BSK_BE3C_TGFb1: BioMAP Diversity Plus: BE3C Assay for Transforming growth factor beta 1 (TGFb1) Biomarker Activity (AID 2283036)
# test.parameters: primary human bronchial epithelial cells; actives raise or lower the signal
Calls of active or inactive are those of the source. How the source made its calls: active means hit-call score of the fitted dose curve at least 0.9, where 1 is the maximum; inactive means score below 0.9.

Some solved cases for reference:
structure.string | AC50
Cc1ccc(S(=O)(=O)C(I)I)cc1 | 7.3 µM (active)
Cc1cc(C)c(O)c(C(C)(C)C)c1 | 29.8 µM (active)

Field: next compound
### Prompt Recorded AC50 for CCN(CC)c1ccc(N=Nc2ccccc2)cc1 , please?
### Response 20 µM (active)

----------
# Read-out: Monocyte Chemoattractant Protein-1 (MCP1), CCL2 (gene 6347)
# method.notes: BSK_CASM3C_MCP1: BioMAP Diversity Plus: CASM3C Assay for Monocyte Chemoattractant Protein-1 (MCP1) Biomarker Activity (AID 2283046);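 further: MCP-1 level quantified by ELISA 24 h after dosing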
# test.parameters: primary human coronary artery smooth muscle cells; actives raise or lower the signal
Activity calls are given as the source filed them. How the source made its calls: active means hit-call score of the fitted dose curve at least 0.9, where 1 is the maximum; inactive means score below 0.9.
Please answer using one outcome listed in yes (active), no (inactive)

Sample answers from the record:
molecule | cat
CN(C(=O)C(F)(F)C(F)(F)C(F)(F)F)[Si](C)(C)C | no
O=C1C=CC(=O)N1c1ccc(Cc2ccc(N3C(=O)C=CC3=O)cc2)cc1 | yes

### Prompt Check the results log: what was the call for O=C=Nc1cccc2c(N=C=O)cccc12 ?
### Response no

### Prompt Also check Cc1cc(O)c(C(C)(C)C)cc1C(C)(C)C
### Response yes

### Prompt Try NC(=O)C(F)(F)C(F)(F)C(F)(F)C(F)(F)C(F)(F)C(F)(F)C(F)(F)F next.
### Response no

### Prompt Now consider CCN(CC)c1ccc2c(c1)Oc1cc(N(CC)CC)ccc1C21OC(=O)c2ccccc21 and answer again.
### Response no

### Prompt Ok, now OCC(F)(F)C(F)(F)C(F)(F)CO
### Response no

### Prompt // next record COC(F)(C(F)F)C(F)(F)F (stereo not given)
### Response no

### Prompt Request: CCN(CC)c1ccc(C=O)cc1
### Response no

### Prompt Could you do the same for O=C(O)C(F)(F)C(F)(F)C(F)(F)C(F)(F)C(F)(F)C(F)(F)C(F)F , please?
### Response no

----------
# Read-out: Tissue Factor, F3 (gene 2152)
# method.notes: BSK_CASM3C_TissueFactor: BioMAP Diversity Plus: CASM3C Assay for Tissue Factor Biomarker Activity (AID 2283052);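 further: cell surface tissue factor protein level read by ELISA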
# test.parameters: primary human coronary artery smooth muscle cells; actives raise or lower the signal
Activity calls are given as the source filed them. The calls were made as follows: active = hit-call score of the fitted dose curve at least 0.9, where 1 is the maximum; inactive = score below 0.9.
Pick from yes (active), no (inactive) when you respond.

Check out these entries, answers already filled in.
compound | cat
O=C(O)C(F)(F)OC(F)(F)C(F)(F)OC(F)(F)C(F)(F)OC(F)(F)F | no
FC(F)(F)C(F)(F)C(F)(F)CC1CO1 (centres undefined) | no
NC(=O)C(F)(F)C(F)(F)C(F)(F)C(F)(F)C(N)=O | no
O=C(O)CCC(F)(F)C(F)(F)C(F)(F)F | no
NS(=O)(=O)C(F)(F)C(F)(F)C(F)(F)C(F)(F)C(F)(F)C(F)(F)F | no
C=CC(=O)OCC(F)(F)C(F)(F)C(F)(F)C(F)(F)C(F)(F)C(F)(F)C(F)(F)C(F)F | no

### Prompt Record request — test call for OCC(F)(F)C(F)(F)C(F)(F)C(F)(F)C(F)(F)C(F)(F)CO
### Response no

### Prompt Now consider OCC(F)(F)C(F)(F)C(F)(F)C(F)(F)C(F)(F)C(F)(F)C(F)(F)C(F)(F)CO .
### Response no

### Prompt Same for O=C(O)C(F)(F)C(F)(F)C(F)(F)OC(F)(C(F)(F)F)C(F)(F)F
### Response no

### Prompt Another: C=CC(=O)OCCC(F)(F)C(F)(F)C(F)(F)C(F)(F)F
### Response no

### Prompt Then what about the compound NC(=O)C(F)(F)C(F)(F)C(F)(F)C(F)F ?
### Response no
